Data provenance is PubChem BioAssay (EPA / NIEHS).

# ASSAY_METHOD_TEXT: ATG_DR4_LXR_CIS: Attagene CIS-FACTORIAL HepG2 Assay for human Liver X Receptor (LXR), DR4 submotif (AID 2282929)
# CONDITION_PARAMETERS: HepG2 Attagene DR4 cis-reporter, mRNA transcription; actives raise or lower the signal
Activity calls are given as the source filed them. Rule for the calls: active = hit-call score of the fitted dose curve at least 0.9, where 1 is the maximum; inactive = score below 0.9.
Choose the fitting class; nothing outside true = active, false = inactive is accepted.

MOLECULE: O=C(O)CN(CCN(CC(=O)O)CC(=O)O)CCN(CC(=O)O)CC(=O)O
CAT: false

Query: So what was the verdict on `Nc1cc([N+](=O)[O-])ccc1Cl` in this test?
Response: false

Query: So what was the verdict on `OCCCCCO` in this test?
Response: false

Query: So what was the verdict on `CC(C)(C#N)c1cc(Cn2cncn2)cc(C(C)(C)C#N)c1` in this test?
Response: false

Query: So what was the verdict on `C=CCOC(=O)CCC1CCCCC1` in this test?
Response: false

Query: So what was the verdict on `O=C(O)c1ccc(C(=O)O)cc1` in this test?
Response: false

====

# TARGET: Nuclear respiratory factor 1 (Homo sapiens) (UniProt Q16656)
# Sequence (Q16656 whole entry, looked up): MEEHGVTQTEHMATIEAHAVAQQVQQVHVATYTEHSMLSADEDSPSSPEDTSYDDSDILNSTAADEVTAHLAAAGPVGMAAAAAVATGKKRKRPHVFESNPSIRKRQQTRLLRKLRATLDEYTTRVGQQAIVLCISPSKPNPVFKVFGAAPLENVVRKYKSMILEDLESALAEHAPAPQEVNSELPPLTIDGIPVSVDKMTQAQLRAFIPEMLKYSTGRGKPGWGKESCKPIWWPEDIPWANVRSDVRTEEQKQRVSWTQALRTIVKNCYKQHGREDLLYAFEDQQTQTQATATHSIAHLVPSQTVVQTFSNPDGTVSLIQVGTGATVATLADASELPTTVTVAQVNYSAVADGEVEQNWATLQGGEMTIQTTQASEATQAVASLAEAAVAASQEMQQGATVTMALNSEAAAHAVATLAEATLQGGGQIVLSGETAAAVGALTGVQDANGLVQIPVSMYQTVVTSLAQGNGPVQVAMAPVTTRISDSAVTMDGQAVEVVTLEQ
# ASSAY_METHOD_TEXT: ATG_NRF1_CIS: Attagene CIS-FACTORIAL HepG2 Assay for human Nuclear Respiratory Factor 1 (NRF1) Orphan Gene (AID 2282987)
# CONDITION_PARAMETERS: HepG2 NRF1 cis-element reporter, Attagene multiplex; actives raise or lower the signal
# Protocol: ATG_CIS is a cell-based, multiplexed-readout assay that uses HepG2, a human liver cell line, with measurements taken at 24 hours after chemical dosing in a 24-well plate.ATG_NRF1_CIS is one of 52 assay component(s) measured or calculated from the ATG_CIS assay. […] This assay endpoint, ATG_NRF1_CIS, was analyzed with bidirectional fitting relative to DMSO as the negative control and baseline of activity. […]
Activity calls are given as the source filed them. Rule for the calls: active = hit-call score of the fitted dose curve at least 0.9, where 1 is the maximum; inactive = score below 0.9.
Choose the fitting class; nothing outside 1 (active), 0 (inactive) is accepted.

Past entries and their recorded results:
COMPOUND: Nc1ccc(S(N)(=O)=O)cc1
CAT: 0
--
COMPOUND: OC[C@H]1O[C@H](O[C@]2(CCl)O[C@H](CCl)[C@@H](O)[C@@H]2O)[C@H](O)[C@@H](O)[C@H]1Cl
CAT: 0
--
COMPOUND: CC(C)=CCO
CAT: 0

Query: So what was the verdict on `CO[Si](C)(OC)c1ccccc1` in this test?
Response: 0

Query: So what was the verdict on C=CC(C)(O)CCC=C(C)CCC=C(C)C (configuration not stated) in this test?
Response: 1

Query: So what was the verdict on `C=C(C)C(=O)OCCOC(=O)CC(C)=O` in this test?
Response: 0

Query: So what was the verdict on `CCCCCCCCCCCCN(CCCCCCCCCCCC)CCCCCCCCCCCC` in this test?
Response: 0

====

# ASSAY_METHOD_TEXT: ATG_PXRE_CIS: Attagene CIS-FACTORIAL HepG2 Assay for human Pregnane X Receptor Element (PXRE) (AID 2282957)
# CONDITION_PARAMETERS: HepG2 Attagene CIS-FACTORIAL PXRE reporter, mRNA; actives raise or lower the signal
Active and inactive are the calls of the source. How the source made its calls: active means hit-call score of the fitted dose curve at least 0.9, where 1 is the maximum; inactive means score below 0.9.
Choose the fitting class; nothing outside 1 = active, 0 = inactive is accepted.

Past entries and their recorded results:
COMPOUND: O=C(O)CN(CCN(CC(=O)O)CC(=O)O)CCN(CC(=O)O)CC(=O)O
CAT: 0
//
COMPOUND: O=[N+]([O-])c1ccc(Nc2ccc(Nc3ccccc3)c(S(=O)(=O)O)c2)c([N+](=O)[O-])c1
CAT: 1
//
COMPOUND: OC[C@H]1O[C@H](O[C@]2(CCl)O[C@H](CCl)[C@@H](O)[C@@H]2O)[C@H](O)[C@@H](O)[C@H]1Cl
CAT: 0
//
COMPOUND: CN(C)CCCN
CAT: 0
//
COMPOUND: O=C(O)c1cn(-c2ccc(F)cc2)c2cc(N3CCNCC3)c(F)cc2c1=O
CAT: 0

Query: So what was the verdict on `O=C(O)CCCCCCCC(=O)O` in this test?
Response: 0

Query: So what was the verdict on `CCOC(=O)c1ccccc1OC` in this test?
Response: 1

Query: So what was the verdict on O=C=NC1CCC(CC2CCC(N=C=O)CC2)CC1 (configuration not stated) in this test?
Response: 0

====

# TARGET: Hepatocyte nuclear factor 4-alpha (Homo sapiens) (UniProt P41235)
# Sequence (P41235 whole entry, looked up): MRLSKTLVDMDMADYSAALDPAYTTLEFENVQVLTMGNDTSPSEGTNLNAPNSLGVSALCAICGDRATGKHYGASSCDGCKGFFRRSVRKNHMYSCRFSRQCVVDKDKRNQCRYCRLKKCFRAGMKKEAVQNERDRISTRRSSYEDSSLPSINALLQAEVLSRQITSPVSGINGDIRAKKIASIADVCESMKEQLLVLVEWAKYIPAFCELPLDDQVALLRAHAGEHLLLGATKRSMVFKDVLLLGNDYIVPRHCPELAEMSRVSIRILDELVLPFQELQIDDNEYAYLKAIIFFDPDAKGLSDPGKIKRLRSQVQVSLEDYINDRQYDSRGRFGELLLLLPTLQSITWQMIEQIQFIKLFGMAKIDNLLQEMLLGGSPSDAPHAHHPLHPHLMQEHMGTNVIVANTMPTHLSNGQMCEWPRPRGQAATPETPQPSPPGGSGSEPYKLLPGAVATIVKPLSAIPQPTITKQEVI
# ASSAY_METHOD_TEXT: ATG_HNF4a_TRANS: Attagene TRANS-FACTORIAL HepG2 Assay for human Hepatocyte Nuclear Factor 4 alpha (HNF4a) (AID 2282982)
# CONDITION_PARAMETERS: HepG2 HNF4a transactivation reporter, mRNA readout
Results filed as inconclusive are left out. Activity calls are given as the source filed them. Rule for the calls: active = hit-call score of the fitted dose curve at least 0.9, where 1 is the maximum; inconclusive = response in the unintended direction; inactive = score below 0.9.
METRIC: outcome

Solved cases below.
MOLECULE: CCCCOCCOCCSC#N
METRIC: outcome
MEASURED_VALUE: inactive
--
MOLECULE: NCCNCCN
METRIC: outcome
MEASURED_VALUE: inactive
--
MOLECULE: CCCCCCCCCCCCCCCC(=O)OC[C@H](O)[C@H]1OC(=O)C(O)=C1O
METRIC: outcome
MEASURED_VALUE: inactive
--
MOLECULE: CCCCCCCCCCCCSC
METRIC: outcome
MEASURED_VALUE: inactive
--
MOLECULE: Clc1nc(C(Cl)(Cl)Cl)c(Cl)c(Cl)c1Cl
METRIC: outcome
MEASURED_VALUE: inactive

Query: Output outcome of `O=C(O)CCCCCCCC(=O)O`
Response: inactive

Query: Output outcome of `N#Cc1ccccc1`
Response: inactive

Query: Output outcome of `C=C(C)C(=O)NCCCN(C)C`
Response: inactive

Query: Output outcome of `CC(C)(COC(=O)c1ccccc1)COC(=O)c1ccccc1`
Response: inactive

Query: Output outcome of `c1ccc2sc(SN(C3CCCCC3)C3CCCCC3)nc2c1`
Response: inactive

Query: Output outcome of `O=Cc1ccc(Cl)c([N+](=O)[O-])c1`
Response: inactive

Query: Output outcome of O=C(O)CCCCC1CCSS1 (configuration not stated)
Response: inactive

Query: Output outcome of C=C(C)C1CCC(C)CC1O (configuration not stated)
Response: inactive

====

# ASSAY_METHOD_TEXT: ATG_TA_CIS: Attagene CIS-FACTORIAL HepG2 Assay for human TA Basal Promoter (AID 2282964)
# CONDITION_PARAMETERS: HepG2 Attagene CIS-factorial TA basal promoter reporter; actives raise or lower the signal
Calls of active or inactive are those of the source. How the source made its calls: active means hit-call score of the fitted dose curve at least 0.9, where 1 is the maximum; inactive means score below 0.9.
Choose the fitting class; nothing outside active, inactive is accepted.

Past entries and their recorded results:
MOLECULE: COCCCOc1ccnc(CS(=O)c2nc3ccccc3[nH]2)c1C (stereo unspecified)
CAT: inactive
//
MOLECULE: C=CC[N+](C)(C)CC=C
CAT: inactive
//
MOLECULE: CC(C)=CCC[C@H](C)CC=O
CAT: inactive
//
MOLECULE: CCOC(=O)c1ccccc1OC
CAT: inactive
//
MOLECULE: COc1ccc(Nc2ccccc2)c(C)c1
CAT: inactive

Query: So what was the verdict on `CCCCCCCCCCCCSC` in this test?
Response: inactive

Query: So what was the verdict on `CC(C)=CCO` in this test?
Response: inactive

Query: So what was the verdict on `CCN(CC)c1ccc(C(=C2C=CC(=[N+](CC)CC)C=C2)c2ccc(S(=O)(=O)O)cc2S(=O)(=O)[O-])cc1` in this test?
Response: inactive

Query: So what was the verdict on `O=C(O)c1cccc([N+](=O)[O-])c1` in this test?
Response: inactive

Query: So what was the verdict on `CCCC(=O)C(C)=O` in this test?
Response: inactive

Query: So what was the verdict on `CC1(C)[C@@H]2CC[C@@]1(C)[C@H](O)C2` in this test?
Response: inactive

Query: So what was the verdict on CC1(CO)CN(c2ccccc2)NC1=O (stereo unspecified) in this test?
Response: inactive

Query: So what was the verdict on `Clc1cccc(Cl)n1` in this test?
Response: inactive

Query: So what was the verdict on CC1COc2ccccc2N1C(=O)C(Cl)Cl (stereo unspecified) in this test?
Response: inactive

Query: So what was the verdict on `CC(=O)O[C@H](CC(=O)[O-])C[N+](C)(C)C` in this test?
Response: inactive

Query: So what was the verdict on `COc1cc2ncnc(Nc3cccc(Cl)c3)c2cc1OC` in this test?
Response: active

Query: So what was the verdict on `Cc1cccc(C)c1[N+](=O)[O-]` in this test?
Response: inactive

Query: So what was the verdict on CCCC(C)C=O (stereo unspecified) in this test?
Response: inactive

Query: So what was the verdict on `O=CCCc1ccccc1` in this test?
Response: inactive

Query: So what was the verdict on `Cc1ccc2sc3cccc(C)c3c2c1` in this test?
Response: inactive
